Catalogue of pIC50 readings, one per entry.
- System: 8505C
- Test Summary: cells
- Format: functional, cell-based
- Details: Homo sapiens
- Description: SANGER: Inhibition of human 8505C cell growth in a cell viability assay.
Scale note: pIC50 = -log10(concentration in M).

Smiles Str	Measured Number
NC(=O)Nc1cc(-c2cccc(F)c2)sc1C(=O)N[C@H]1CCCNC1	6.46

With those in mind, consider the next compound.
Measured pIC50 (8505C), entry OC[C@H](Cc1ccccc1)Nc1nc(Oc2ccc3c(c2)CCC3)nc2c1ncn2Cc1ccc(-c2ccccc2)cc1 : 5.34

###

- System: LNCaP-Clone-FGC
- Test Summary: cells
- Type: functional, cell-based, Homo sapiens
- Details: Homo sapiens, LNCaP-Clone-FGC
- Description: SANGER: Inhibition of human LNCaP-Clone-FGC cell growth in a cell viability assay.
Below is a list of entries, each paired with its recorded IC50 value.

Assay LNCaP-Clone-FGC, sample NC(=O)Nc1cc(-c2cccc(F)c2)sc1C(=O)N[C@H]1CCCNC1 , IC50 read: 1.44 µM

GET /values?item= Cc1ccc(C(=O)Nc2ccc(CN3CCN(C)CC3)c(C(F)(F)F)c2)cc1C#Cc1cnc2cccnn12 &system= LNCaP-Clone-FGC returns IC50: > 0.512 µM

The value of IC50 recorded for O=C(NCCCNc1nc(Nc2cccc(NC(=O)N3CCCC3)c2)ncc1I)c1cccs1 when tested on LNCaP-Clone-FGC reads > 5 µM
